target: glutathione S-transferase (GST); test: other fluorescence titration
pKd: −log10 of the molar value. Where no end group is shown, it is not given here. The star is where a group is joined. Prodan = Prodan fluorogenic core conjugated to Cys (C*)
reported.endpoint: pKd

binder: NTVSC(Prodan)HGF [Prodan-evolver NTVSC*HGF (1)]
reported.measurement: 5.28

All figures here come from paper PMC5077683.
